# Test system: HOP-62 NSCLC
# assay: NCI-60 one-dose screen, 48 h (100 = growth as untreated, 0 = no growth, -100 = all killed)
# runConditions: 10 µM unless noted
About 83,000 compounds went through this panel and 20% of them were active in at least one assay; those are over-represented in the sample as a whole. The source made the active and inactive calls. Rule for the calls: active = growth percent below 10; inactive = the rest.
assayEndpoint: growth

Assign growth to the following record: CN1CCN(C(=O)/C=C/c2ccc([N+](=O)[O-])o2)CC1
134% (inactive)

Assign growth to the following record: CC(C)C(=O)Nc1nc2c(s1)CCCc1ccn(S(=O)(=O)c3ccccc3)c1-2
90.6% (inactive)

Assign growth to the following record: Cc1ccc2oc(=O)cc(C3C(C#N)=C(N)Oc4c3ccc3ccccc43)c2c1 (centres undefined)
63.7% (inactive)

Assign growth to the following record: CNCCCOc1c(Br)cc(CCNC(=O)/C(Cc2ccc(OC)c(Br)c2)=N/O)cc1Br
67.5% (inactive)

Assign growth to the following record: COc1ccc(NC(=O)COCCOCCNC[C@@H]2C(=O)O[C@H]3[C@H]2CC/C(COC(=O)OC/C2=C/CC[C@@]4(C)O[C@H]4[C@H]4OC(=O)[C@@H](CN(C)C)[C@@H]4CC2)=C\CC[C@@]2(C)O[C@@H]32)c(O)c1C(N)=O
93.9% (inactive)

Assign growth to the following record: CS(=O)(=O)Nc1cccc(-c2ccc3ncnc(Nc4cncc(Cl)c4)c3c2)c1
40.5% (inactive)

Assign growth to the following record: Cc1c(F)cccc1NC(=O)c1sc2nc3c(cc2c1N)CCCCC3
50.3% (inactive)

Assign growth to the following record: Cc1cn(-c2cc(C(=O)Nc3cccc(-n4ccc5c(NC(=O)c6ccccc6)nccc54)c3)cc(C(F)(F)F)c2)cn1
31.5% (inactive)

Assign growth to the following record: CC(C)[C@@H]1NC(=O)[C@]2(C)CSC(=N2)c2ccnc(c2)CNC(=O)C[C@@H](/C=C/CCS)OC1=O
6.46% (active)

Assign growth to the following record: O=C(Nc1cccc(-n2ccc3c(NC(=O)c4ccccc4)nccc32)c1)c1cccc(C(F)(F)F)c1
36.4% (inactive)

Assign growth to the following record: Nc1nc(Cl)cc(NCc2ccc(CNc3cc(Cl)nc(N)n3)cc2)n1
48.8% (inactive)

Assign growth to the following record: COc1ccc(-c2nn(-c3ccc(NC(=O)c4ccc(Cl)c(C(F)(F)F)c4)cc3)cc2-c2ccncc2)cc1Cl
-24.9% (active)

Assign growth to the following record: O=C(Nc1ccc(F)cc1)Nc1ccc(Cl)c([N+](=O)[O-])c1
38.8% (inactive)

Assign growth to the following record: Nc1nc(Cl)c2c(C(F)(F)F)cn(CC3CCNCC3)c2n1
103% (inactive)

Assign growth to the following record: COc1ccc(-c2nnc(SCC(=O)Nc3ccc(C(=O)/C=C/c4ccc(OC)c(OC)c4)cc3)o2)cc1
73.6% (inactive)

Assign growth to the following record: Nc1ncc(-c2ccc3ncnc(Nc4cncc(Cl)c4)c3c2)cn1
65.6% (inactive)

Assign growth to the following record: CCCCn1c(-c2cccc(OC)c2)nc2cc(OC)c(OC)cc2c1=O
45.7% (inactive)

Assign growth to the following record: CC(=O)Nc1ccc(OC(=O)c2ccccc2O)cc1
99.8% (inactive)

Assign growth to the following record: Cc1cc(C)c(O)c(C(=O)CC(Br)C(=O)O)c1 (centres undefined)
106% (inactive)

# credit: PubChem BioAssay (NCI)
